system: L1210 leukemia ip in BDF1 mice, survival T/C; assay: NCI In Vivo Anticancer Drug Screen. Data for tumor model L1210 Leukemia (intraperitoneal) in B6D2F1 (BDF1) mice; settings: endpoint: mean survival time; dose: 50.0 mg/kg/injection; schedule: Q01DX001 (ip); vehicle: other; higher = longer survival
Inconclusive results and toxic doses are left out.
test.readout: T/C

Incoming: For O=C(c1ccccc1)c1ccccc1O , what is its reported T/C?
Outgoing: 90 % of control

Incoming: For O=P(Oc1ccccc1)(N1CCCCC1)N1CCCCC1 , what is its reported T/C?
Outgoing: 91 % of control

Incoming: For O=C(O)c1ccccc1C(=O)NCc1ccco1 , what is its reported T/C?
Outgoing: 94 % of control

Incoming: For CCCCCCCCNP(=S)(NCCCCCCCC)NCCCCCCCC , what is its reported T/C?
Outgoing: 105 % of control
